- Assay Remarks: self-splicing fitness, log relative to wild type (ln ratio); higher = more splicing; Tetrahymena group I intron in knt gene, E. coli kanamycin selection, DiMSum; sequences stand for … in CUCUCU…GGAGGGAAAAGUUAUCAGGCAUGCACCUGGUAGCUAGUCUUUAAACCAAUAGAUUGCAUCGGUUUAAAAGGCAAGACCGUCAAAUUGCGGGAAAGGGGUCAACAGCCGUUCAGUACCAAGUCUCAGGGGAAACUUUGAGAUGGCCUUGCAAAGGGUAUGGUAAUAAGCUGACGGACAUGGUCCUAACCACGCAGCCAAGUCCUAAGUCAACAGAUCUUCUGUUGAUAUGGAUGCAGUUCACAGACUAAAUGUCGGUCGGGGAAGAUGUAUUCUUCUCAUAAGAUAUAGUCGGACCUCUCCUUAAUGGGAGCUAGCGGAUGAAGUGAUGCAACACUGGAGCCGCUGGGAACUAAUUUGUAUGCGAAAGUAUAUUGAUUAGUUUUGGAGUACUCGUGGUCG;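 further: selection with 25 µg/mL kanamycin versus none on LB agar overnight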
- Condition Label: 30 °C
# binarize self-splicing fitness (ln): threshold -3 inclusive, high side criterion met, low side criterion not met

Query Sequence | Class Name
CAUCAGCAAUAUUACGAGAC | criterion not met
GUCUAGCAAUAUUACGUGGC | criterion met
UUGGAGCAAUAUUACGAGGC | criterion not met
CUGGAGCAAUAUUACGGACC | criterion not met
ACUUAGCAAUAUUACGCGGA | criterion met
GGAAAGCAAUAUUACGAGUG | criterion not met
GGUCAGCAAUAUUACGCUCU | criterion met
GCACAGCAAUAUUACGACAU | criterion met
AGUGAGCAAUAUUACGUUAU | criterion not met
UUAUAGCAAUAUUACGGCCU | criterion met
UCAGAGCAAUAUUACGACUC | criterion met
CGUUAGCAAUAUUACGAAGU | criterion met
UUAAAGCAAUAUUACGCUAG | criterion met
CCGCAGCAAUAUUACGAUGU | criterion not met
AUUCAGCAAUAUUACGGAGU | criterion not met
GCGUAGCAAUAUUACGAGGU | criterion met
